Test system: IL-2 secretion from Jurkat T cells
Test: IL-2 secretion from activated Jurkat T cells (ELISA)
Type: cell-based, human
Details: 100 uM, experiment (3)
So I've got a bunch of molecules here, and I need their IL-2 [ ]pg/ml (3) values.
Answers are plain numbers, in pg/mL.

As a guide, the following entries are already answered.
# Molecule, IL-2 [ ]pg/ml (3) (pg/mL)
measured = [
    ("O[C@H]1c2ccccc2C[C@]1(Cc1ccccc1)C1=Cc2ccccc2C1 (mixture of isomers)", 1.97),
    ("O[C@@H]1c2ccccc2C[C@]1(Cc1ccccc1)C1=Cc2ccccc2C1 (mixture of isomers)", 0.28),
    ("O[C@H]1c2ccccc2C[C@]1(Cc1ccccc1)C1=Cc2ccccc2C1 (single isomer, unassigned)", -5.28),
]

Query :: What does the data say about its IL-2 [ ]pg/ml (3)? Entry: O[C@@H]1c2ccccc2C[C@@]1(Cc1ccccc1)C1=Cc2ccccc2C1 (single isomer, unassigned)
Result :: -0.78

----------
Test system: IL-2 secretion from Jurkat T cells
Assay: IL-2 secretion from activated Jurkat T cells (ELISA)
Assay type: cell-based, human
Conditions: 30 uM, experiment (1), relative to DMSO 0.1%
Description: The T cell line Jurkat 6.1 (ATCC) was used. Cells were pre-treated for 30 min with 1 μM or 10 μM of the respective compound and then stimulated with plate-bound anti-CD3 (BD Pharmingen) and anti-CD28 (AnCell). DMSO was used as vehicle control. […] After 24 hs the supernatant was collected and IL-2 secretion was measured by ELISA. […] The cell culture supernatants were analysed for IL-2 by ELISA (96-well plate format) using the Human IL-2 ELISA kit from R&D Systems Europe. […]
Reported property: IL-2 % Control (1) (%)
Answers are plain numbers, in %.

As a guide, the following entries are already answered.
# Compound, IL-2 % Control (1), %
measured = [
    ("O[C@@H]1c2ccccc2C[C@@]1(Cc1ccccc1)C1=Cc2ccccc2C1 (single isomer, unassigned)", 19.40),
    ("O[C@H]1c2ccccc2C[C@]1(Cc1ccccc1)C1=Cc2ccccc2C1 (mixture of isomers)", 6.47),
    ("O[C@@H]1c2ccccc2C[C@]1(Cc1ccccc1)C1=Cc2ccccc2C1 (mixture of isomers)", 79.66),
]

Query :: So what IL-2 % Control (1) did O[C@H]1c2ccccc2C[C@]1(Cc1ccccc1)C1=Cc2ccccc2C1 (single isomer, unassigned) get with IL-2 secretion from Jurkat T cells?
Result :: −6.24

----------
Tested on: IL-2 secretion from Jurkat T cells
Assay: IL-2 secretion from activated Jurkat T cells (ELISA)
Type: cell-based, human
Conditions: 10 uM, experiment (2)
So I've got a bunch of compounds here, and I need their IL-2 [ ]pg/ml (2) values.
One number for each entry, in pg/mL.

As a guide, the following entries are already answered.
# Compound, IL-2 [ ]pg/ml (2) [pg/mL]
rows = [
    ("O[C@H]1c2ccccc2C[C@]1(Cc1ccccc1)C1=Cc2ccccc2C1 (single isomer, unassigned)", 85.60),
    ("O[C@@H]1c2ccccc2C[C@]1(Cc1ccccc1)C1=Cc2ccccc2C1 (mixture of isomers)", 63.80),
    ("O[C@H]1c2ccccc2C[C@]1(Cc1ccccc1)C1=Cc2ccccc2C1 (mixture of isomers)", 36.15),
]

Moving on to another compound below.
Query :: What does the data say about its IL-2 [ ]pg/ml (2)? Entry: O[C@@H]1c2ccccc2C[C@@]1(Cc1ccccc1)C1=Cc2ccccc2C1 (single isomer, unassigned)
Result :: 45.60

----------
So I've got a bunch of compounds here, and I need their IL-2 % Control (3) values.
System: IL-2 secretion from Jurkat T cells
Test: IL-2 secretion from activated Jurkat T cells (ELISA)
Assay type: cell-based, human
Conditions: 100 uM, experiment (3), relative to DMSO 0.1%
Answers are plain numbers, in %.

Hey, can you go through the list below and give me IL-2 % Control (3) for every item?
1. O[C@H]1c2ccccc2C[C@]1(Cc1ccccc1)C1=Cc2ccccc2C1 (single isomer, unassigned)
2. O[C@@H]1c2ccccc2C[C@@]1(Cc1ccccc1)C1=Cc2ccccc2C1 (single isomer, unassigned)
3. O[C@@H]1c2ccccc2C[C@]1(Cc1ccccc1)C1=Cc2ccccc2C1 (mixture of isomers)
4. O[C@H]1c2ccccc2C[C@]1(Cc1ccccc1)C1=Cc2ccccc2C1 (mixture of isomers)

Result ::
["−4.01", "−0.59", 0.21, 1.50]

These data points were gathered from patent US20150141523A1.
